protocol.description: folding enthalpy; higher = less favourable; fluorescence melt of hairpins on a sequencing array, two-state fit
applied.conditions: sodium 0.088 M
measurement.label: folding enthalpy
Express your answer as a number followed by its unit.

Here are 5 sequences together with their reported answers.
# sequence.chain, folding enthalpy
records = [
    ("GTTCGGGGAAACCTGAGC (.((.((....)).)).)", "-20.5 kcal/mol"),
    ("GATCCATGTCTGGATC ((((((....))))))", "-40.9 kcal/mol"),
    ("GCGAACCATCGC ((((....))))", "-18.7 kcal/mol"),
    ("GGCCACCGAAAGGTTGCC (((.(((....))).)))", "-44.3 kcal/mol"),
    ("GTCGGCGAAAGCCCCGAC ((((((....)))..)))", "-15.6 kcal/mol"),
]

Input: Item under review: GGTGACTCGAAAGAGACC (((..(((....)))))) . Reported folding enthalpy?
Output: -16.5 kcal/mol

Input: What do you have for GGTAGTGAAAACTACC ((((((....)))))) ?
Output: -33.4 kcal/mol

Input: Another sequence to look at: GAGTATGCGAAAGCACTC (((..(((....))))))
Output: -14.9 kcal/mol

Input: Also GGAAGGGAAACCTTCC ((((((....)))))) , if possible.
Output: -38 kcal/mol

Input: Entry to check: GCTGGACGAAAGTCAAGC (((.(((....))).)))
Output: -38.3 kcal/mol

Input: Also, GAATAACCGAAAGGTTTC (((..(((....)))))) please.
Output: -15.1 kcal/mol

Input: Next sequence: GTCTACGAAAGTAGAC ((((((....))))))
Output: -36.8 kcal/mol

Input: What do we get for GCATAGCGAAAGCGATGC ((((.((....)).)))) ?
Output: -30.9 kcal/mol

Entry source: the array DNA melting data of Ke et al. (doi:10.1101/2024.01.08.574731)
